Molecular target: human FAAH (Homo sapiens)
Construct: expressed in transfected cells; host or cells: H4 cells (H4-FAAH, Geneticin-selected); crude membrane homogenates
Sequence (O00519 whole entry): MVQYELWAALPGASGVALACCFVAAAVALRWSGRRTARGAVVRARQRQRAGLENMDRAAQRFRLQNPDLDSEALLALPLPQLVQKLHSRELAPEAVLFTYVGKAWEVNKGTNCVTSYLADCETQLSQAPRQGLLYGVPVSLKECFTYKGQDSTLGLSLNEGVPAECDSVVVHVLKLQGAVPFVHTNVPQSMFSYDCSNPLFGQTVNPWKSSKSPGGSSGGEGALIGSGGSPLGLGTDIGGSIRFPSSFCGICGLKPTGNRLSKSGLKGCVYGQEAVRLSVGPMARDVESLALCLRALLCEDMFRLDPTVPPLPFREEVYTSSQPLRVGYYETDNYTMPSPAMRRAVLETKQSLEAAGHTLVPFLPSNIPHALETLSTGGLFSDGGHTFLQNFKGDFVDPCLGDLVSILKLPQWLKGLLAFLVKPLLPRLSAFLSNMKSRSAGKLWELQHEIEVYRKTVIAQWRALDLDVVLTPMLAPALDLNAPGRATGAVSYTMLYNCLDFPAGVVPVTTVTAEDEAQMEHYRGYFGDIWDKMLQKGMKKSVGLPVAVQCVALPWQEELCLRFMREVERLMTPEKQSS
Experiment: FAAH activity in membrane homogenates of H4-FAAH cells, [3H]-anandamide hydrolysis
Format: biochemical
Settings: H4-FAAH cell membranes, 10 μM anandamide, room temperature, one hour; read-out: IC50
Description: Homogenates of crude membranes were prepared from H4 cells that express transfected human FAAH (H4-FAAH cells). […] Activity of FAAH was measured using a modification of the method described by Omeir et al., 1995 (Life Sci 56:1999, 1995). […] An aliquot of the aqueous phase, containing [^3H]-ethanolamine was withdrawn and counted by scintillation spectroscopy. […] IC50 values were determined using a four-parameter logistic equation for dose-response curves.
EXPERIMENTAL ENDPOINT: IC50

// solved cases for IC50 follow
> print(dat)
                                   molecule          value
1  O=C(Nc1ccc(Oc2ccccc2)cc1)O/N=C/c1ccc(F)cc1 [Example 77]        < 10 nM
2  CCCOc1ccc(NC(=O)O/N=C/c2ccc(F)cc2)cc1 [Example 13]   10 to 100 nM
3  CCCCCCCCCOc1ccc(NC(=O)O/N=C/c2ccc(C(F)(F)F)cc2)cc1 [Example 53]        < 10 nM
4  CCCCOc1ccc(CNC(=O)Oc2ccc3ccccc3c2)cc1 [Example 116]   10 to 100 nM
5  CCCCOc1ccc(C(CC)NC(=O)Oc2cccc3ccccc23)cc1 (centres unmarked) [Example 127]  101 to 500 nM

Report IC50 for each item below.
1. CCCCOc1cccc(NC(=O)O/N=C/c2ccc(F)cc2)c1 [Example 68]
2. CCCCCCCCCCOc1ccc(NC(=O)O/N=C/c2ccccc2)cc1 [Example 33]
3. O=C(Nc1ccc(Oc2ccccc2)cc1)Oc1ccccc1F [Example 123]

Result ::
10 to 100 nM
< 10 nM
> 500 nM

Report IC50 for each item below.
1. O=C(Nc1cccc(Oc2ccccc2)c1)O/N=C/c1ccc(F)cc1 [Example 88]
2. CCCCCCCCCCCCOc1ccc(NC(=O)O/N=C/c2cccnc2)cc1 [Example 43]
3. CCOc1ccc(NC(=O)O/N=C/c2ccccc2)cc1 [Example 9]
4. O=C(Nc1ccccc1Oc1ccccc1)O/N=C/c1cccnc1 [Example 92]

Result ::
1. < 10 nM
2. < 10 nM
3. 10 to 100 nM
4. > 500 nM

Report IC50 for each item below.
1. CCCCOc1ccc(CNC(=O)Oc2ccc(C(C)C)cc2)cc1 [Example 117]
2. O=C(Nc1ccccc1Oc1ccccc1)O/N=C/c1ccccc1 [Example 90]
3. O=C(Nc1ccc(OCCc2ccccc2)cc1)O/N=C/c1cccnc1 [Example 79]
4. CCCCCCCCC(=O)Nc1ccc(NC(=O)O/N=C/c2cccc(C(F)(F)F)c2)cc1 [Example 138]
5. CCCCOc1ccc(C(CC)NC(=O)Oc2ccc(F)cc2)cc1 (centres unmarked) [Example 132]

Result ::
1: 10 to 100 nM; 2: 10 to 100 nM; 3: < 10 nM; 4: 10 to 100 nM; 5: 10 to 100 nM

Report IC50 for each item below.
1. CCCCOc1ccc(NC(=O)O/N=C/c2ccccc2)cc1OC [Example 19]
2. O=C(Nc1ccc(OCCCc2ccccc2)cc1)O/N=C/c1cccnc1 [Example 80]
3. CCCCCCOc1ccc(NC(=O)O/N=C/c2ccc(F)cc2)cc1 [Example 24]

Result ::
1. 101 to 500 nM
2. < 10 nM
3. < 10 nM
